Record form. Attribute: IC50. Fill in for each entry.
- testedTarget: 6His-Tev-LRRK2 (1326-2527) (Homo sapiens)
- Construct: A LRRK2 cDNA encoding residues 1326-2527 was received from Dundee University; made in house; host or cells: Spodoptera frugiperda (Sf9) insect cells, baculovirus (pFB-HTb)
- Sequence (Q5S007 1326-2527): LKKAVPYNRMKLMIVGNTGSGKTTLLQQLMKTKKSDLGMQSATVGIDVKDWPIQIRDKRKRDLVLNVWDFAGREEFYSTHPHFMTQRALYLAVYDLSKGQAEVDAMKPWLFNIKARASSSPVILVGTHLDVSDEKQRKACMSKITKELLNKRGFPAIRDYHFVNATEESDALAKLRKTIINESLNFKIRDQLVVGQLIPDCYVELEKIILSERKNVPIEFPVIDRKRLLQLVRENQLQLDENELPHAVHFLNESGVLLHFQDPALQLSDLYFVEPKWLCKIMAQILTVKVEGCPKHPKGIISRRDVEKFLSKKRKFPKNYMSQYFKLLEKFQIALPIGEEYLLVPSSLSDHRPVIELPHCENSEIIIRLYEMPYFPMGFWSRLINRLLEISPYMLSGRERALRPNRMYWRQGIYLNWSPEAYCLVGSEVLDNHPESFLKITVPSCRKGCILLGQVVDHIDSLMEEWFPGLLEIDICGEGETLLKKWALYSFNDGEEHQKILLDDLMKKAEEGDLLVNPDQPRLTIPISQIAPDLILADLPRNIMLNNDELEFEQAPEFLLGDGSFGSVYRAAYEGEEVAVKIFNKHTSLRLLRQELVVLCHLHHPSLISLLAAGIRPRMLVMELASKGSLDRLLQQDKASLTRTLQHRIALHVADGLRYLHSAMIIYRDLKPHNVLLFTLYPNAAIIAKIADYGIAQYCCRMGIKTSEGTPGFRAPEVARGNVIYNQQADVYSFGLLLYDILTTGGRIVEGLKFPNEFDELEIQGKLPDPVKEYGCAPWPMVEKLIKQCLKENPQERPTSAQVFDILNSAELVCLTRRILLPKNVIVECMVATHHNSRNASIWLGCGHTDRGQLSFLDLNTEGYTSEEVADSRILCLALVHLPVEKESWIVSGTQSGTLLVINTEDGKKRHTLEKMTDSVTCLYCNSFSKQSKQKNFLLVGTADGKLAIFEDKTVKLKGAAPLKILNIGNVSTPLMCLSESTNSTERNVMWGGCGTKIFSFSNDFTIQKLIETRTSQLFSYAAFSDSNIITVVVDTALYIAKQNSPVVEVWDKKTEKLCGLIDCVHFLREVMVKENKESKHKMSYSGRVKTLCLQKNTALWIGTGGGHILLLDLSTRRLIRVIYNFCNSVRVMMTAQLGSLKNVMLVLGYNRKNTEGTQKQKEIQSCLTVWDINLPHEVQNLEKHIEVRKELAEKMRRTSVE
- testSummary: LRRK2 AlphaScreen desensitised protein substrate assay
- Format: biochemical
- settings: mean pIC50 of multiple test results; GST-PS-Moesin (400-577) substrate, 2 mM ATP; read-out: LRRK2 alphascreen desensitized protein substrate assay (pIC50) (converted)
Give bare numbers, in nM.

- compound: "Cn1cc(-c2cc(C(=O)Nc3cccnc3)c(OCc3ccc(F)cc3F)cc2CN2CCOCC2)cn1"
  IC50 [nM]: 200
- compound: "Cn1cc(-c2cc(C(=O)Nc3ccnnc3)c(OCc3ccc(F)cc3)cc2C(=O)N2CCOCC2)cn1"
  IC50 [nM]: 1580
- compound: "CN(C)C(=O)c1cc(OCc2ccccc2)c(C(=O)Nc2cccnc2)cc1-c1cnn(C)c1"
  IC50 [nM]: 200
- compound: "Cn1cc(-c2cc(C(=O)Nc3cccnc3)c(OCc3ccccc3)cc2C(=O)N2CCCCC2)cn1"
  IC50 [nM]: 50.1

List IC50 for every entry below, keeping the order given.
1. Cc1cc(C(=O)Nc2cccnc2)c(OCc2ccccc2)cc1-c1cnn(C)c1
2. Cn1cc(-c2cc(C(=O)Nc3cccc(Cl)c3)c(OCc3ccc(F)cc3)cc2C(=O)N2CCOCC2)cn1
3. Cc1cc(C(=O)Nc2ccnnc2)c(OCc2ccccc2)cc1-c1cnn(C)c1

Result:
[50.1, 15.8, 100]

Ask: Request the reported IC50 associated with Cn1cc(-c2cc(C(=O)Nc3cccnc3)c(OCc3ccc(F)cc3)cc2CN2CCOCC2)cn1
Result: 158
